Parameter: melting point. Scope: all listed entries.
OBSERVABLE: melting point

* CCOC(=O)CCc1c[nH]c2ccc([N+](=O)[O-])cc12 | 118 to 121 °C
* CN(C)S(=O)(=O)OCCOc1ccc(Cl)cc1 | 54 to 57 °C
* CC(=O)OC1CSC(Oc2ccc(-c3ccnc(Cl)c3)nc2)C(OC(C)=O)C1OC(C)=O (stereo not given) | 226 °C
* CC(=O)NCc1cccc(Nc2nccc(-c3sc(NCc4ccccc4)nc3C)n2)c1 | 181 to 183 °C
* COC(=O)c1ccc(NC(=O)C(F)(F)F)c(C(=O)OC)c1 | 239 °C
* CN1CCOc2cc(O)c(C3(O)C(=O)N(Cc4ccc(C(F)(F)F)o4)c4ccccc43)cc21 (stereo not given) | 184 to 186 °C
* CCCCn1nc2c(N)nc3ncccc3c2c1CC(C)C | 219 to 222 °C
* Cc1c(C)c2c(c(C)c1NS(C)(=O)=O)CC(C)(C)O2 | 159 to 160 °C
* O=S(=O)(N=Cc1cccnc1)c1ccccc1 | 123 °C
* CCCNC(=O)c1nnc(NCc2cc(Br)ccc2OCc2ccccc2)s1 | 154 °C
* CC(C)(C)OC(=O)NCc1nc(C(=O)NNC(=O)OCc2ccccc2)cc(OCc2ccccc2)c1OCc1ccccc1 | 128 to 129 °C
* Cc1ccc(-c2ccc3c(c2)C=C(C(=O)Nc2ccc(CN4CCN(C(c5ccccc5)c5ccccc5)CC4)cc2)CC3)cc1 | 217 to 218 °C
* O=S(=O)(O)c1cc(NCc2c(F)c(F)c(C(F)(F)F)c(F)c2F)ccc1O | > 300 °C
* O=C(O)COc1cc(F)ccc1C(=O)NCc1ccc(Br)cc1F | 143 to 145 °C
* COc1ccc(-n2cccc2-c2ccc(S(C)(=O)=O)cc2)cc1F | 116 to 118 °C
* CC1Nc2ccc(-c3csc(C#N)c3)cc2C2(CCCC2)O1 (stereo not given) | 103 to 104 °C
* O=C(O)c1ccn(-c2ccc(F)cc2)c1 | 204 to 205 °C
* Cc1c(C(N)=O)c(C(F)(F)F)nn1-c1c(Cl)cc(C(F)(F)F)cc1Cl | 165 to 170 °C
* COc1ccc(C(=O)c2ccc(F)cc2)c(F)c1 | 89.7 to 90.1 °C
* CCCCC(CC)COC(=O)C=CC(=O)NC(N)=O (stereo not given) | 73 to 76 °C
